Biological target: T1, Tau peptide Start 422 Stop 441
T1 peptide: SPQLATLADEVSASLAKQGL
Experiment: Pepscan ELISA on an array of linear 20-mer Tau 441 peptides
Set-up: unit not given here
Readout kind: peptide ELISA signal (no name or unit printed)
Number only, no unit.

Example entries and their recorded answers appear below.
[[record]]
binder = "hTau60 monoclonal antibody (recombinant, mouse IgG2a/kappa) (antibody, V domains shown, also called hTau60 (PT1B469)) VH: EVQLQQSGPELVKPGTSVKISCKVFGYTFTDYYMNWVKQSHGKSLEWIGDINPDNGETTYNQKFKGKATLTVDKSSSTAYMELRSLTSEDSAVYYCAKGATFVYWGQGTLVTVSA VL: DVVMTQTPLSLPVSLGDQASISCISSQSLVHSTGTTFLHWFLQKPGQSPKLLIYKVSNRFSGVPDRFSGSGSGTDFTLKISRVEAEDLGFYFCSQSTYFPLTFGSGTKLEIKR"
observed_measurement = 2920

[[record]]
binder = "PT69 monoclonal antibody (recombinant, mouse IgG2a/kappa) (antibody, V domains shown, also called PT69/PT87; PT69 (PT1B548)) VH: QVQLQQPGAELVKPGASVKMSCKASGYTFTNYWITWVKQRPGQGLEWIGDIYPGSGRTKSNEKFKNKATLTADTSSSTAYMQLSSLTSEDSAVYYCTRRWGLDYWGQGTTLTVSS VL: DIVITQDELSNPVTSGESVSISCRSNKSLLYKDGKTYLNWFLQRPGQSPQLLIYLMSTRASGVSDRFSGSGSGTDFTLEISRVKAEDVGVYYCQQLVDYPLTFGAGTKLELKR"
observed_measurement = 2930

[[record]]
binder = "PT66 monoclonal antibody (recombinant, mouse IgG2a/kappa) (antibody, V domains shown, also called PT66 (PT1B545)) VH: QVQLQQPGAELVKPGASVKMSCKASGYTFTSYWITWVKQRPGQGLEWIGDIHPGRGSTKSNEKFKSKATLTVDTSSSTAYMQFSSLTSEDSAVYYCARRWGFDYWGQGTTLTVSS VL: DIVITQDELSNPVTSGESVSISCRSSKSLLYKDGKTYLNWFLQRPGQSPQLLIYLMSTRASGVSDRFSGSGSGTDFTLEISRVKAEDVGVYYCQQLVDYPLTFGAGTKLELKR"
observed_measurement = 2950

[[record]]
binder = "PT81 monoclonal antibody (recombinant, mouse IgG2a/kappa) (antibody, V domains shown) VH: QVQLQQPGAELVRPGASVILSCKASGYTFTNSWIHWVKQRPGRVLEWIGRIDPNSGGTRYNENFKSKATLTVDKPSSTAYMQLSSLTSEDSAVYFCSRGVLHDYWGQGTTLTVSS VL: DIVITQDELSNPVTSGESVSISCRSSKSLLYKDGKTYLNWFLQRPGQSPQLLIYLMSTRASGVSDRFSVSGSGTDFTLEISRVQAEDVGVYYCQQLVEYPYTFGGGTKLEIKR"
observed_measurement = 2920


Moving on to the next binder.
### Prompt For the binder shown here, PT53 monoclonal antibody (recombinant, mouse IgG2a/kappa) (antibody, V domains shown, also called PT50/PT53) VH: EVKLMESGGGLVQPGASLRLSCAASGFTFTDYYMSWVRQPPGKAPEWLALIRNKANGYTTKYAASVKGRFTISRDNSQNILYLQMNTLRAEDSATYYCVKAVWFAYWGQGTLVTVSA VL: DIVITQDELSNPVTSGESVSISCRSSKSLLYKDGKTYLNWFLQRPGQSPQLLIYLMSTRASGVSDRFSGSGSGTDFTLEISRVKAEDVGVYYCLQLVEYPYTFGGGTKLEIKR , give the reported peptide ELISA signal (no name or unit printed).
### Response 2930
